biological target: T1, Ala mutant SEQ ID NO: 39 (human); test: ELISA, peptide on plate (10 ug/mL)
T1 sequence (peptide): EENMDDQWMQDEAEIGY
Listed binders paired with reported absorbance 490 nm/630 nm
Give the value in OD but do not write OD after it.

// solved cases for absorbance 490 nm/630 nm follow
H7 (antibody, IgG1, V domains shown) VH: AVTLDESGGGLQTPGGALSLVCKASGFTFSTYAMGWMRQAPGKGLEYVAAIRNDGSWTGYGAAVKGRATILRDNGQSTVRLQLSNLRAEDTGTYYCAKYTGSSGGSIGAWGHGTEVIVS VL: ASTQPSSVSANPGGTVEITCSGGSGRYYYGWYQQKSPGSAPVTVIYSSTHRPSNIPSRFSGSKSGSTATLTITGVQAEDEAVYFCGTADSSSYVFGAGTTLTVL = 1.81
E9 (antibody, IgG1, V domains shown) VH: AVTLDESGGGLQTPGGTLSLVCKGSGFTFSSYGMGWMRQAPGKGLEYVAAIRNDGSWTGYGSAVKGRATISRDNGQSTVRLQLNNLRAEDTATYYCAKTSGSSGGSVDAWGHGTEVIVS VL: ASTQPSSVSANLGGTVEITCSGGGRYYYGWYQQKSPGSAPVTVIYANDKRPSDIPSRFSGSKSGSTGTLTITGVQAEDEAVYFCGSAETSSYVFGAGTTLTVL = 1.77

// below: absorbance 490 nm/630 nm requested for another binder
**Q:** Query (binder): G9 (antibody, IgG1, V domains shown) VH: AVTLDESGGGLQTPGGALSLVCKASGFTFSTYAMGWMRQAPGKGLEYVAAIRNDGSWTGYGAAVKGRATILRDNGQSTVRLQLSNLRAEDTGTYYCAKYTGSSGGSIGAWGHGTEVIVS VL: AVTQPASVSANLGGTVEITCSGGGRYYYGWYQQKSPGSAPVTVIYANDKRPSDIPSRFSGSKSGSTGTLTITGVQAEDEAVYFCGSAETSSYVFGAGTTLTVL ; field requested: absorbance 490 nm/630 nm
**A:** 1.87
